This collection of values is drawn from paper PMC4414246.

Assign pKd to each entry below.
biological target: U1A M51K (UniProt P09012 10-89, M51K); assay: fluorescence polarization
Sequence (P09012 10-89 M51K): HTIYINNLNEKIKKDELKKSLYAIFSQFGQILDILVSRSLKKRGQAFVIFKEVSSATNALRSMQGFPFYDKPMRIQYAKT
One number for each entry, as −log10 of the molar value.

[
  {
    "binder": "GGCAGAUCUGAGCCUGGGAGCUCUCUGCC (structured_RNA) [TAR RNA]",
    "pKd": 5.11
  }
]

Field: next binder
Fill in: pKd of GGCAGATCTGAGCCTGGGAGCTCTCTGCC (structured_DNA) [TAR DNA] is ___
4.27
